target: HCV polymerase (Hepatitis C virus genotype 1b, UniProt P26663); construct: a region encoding NS5B (J Virol 1991 March, 65(3), 1105-13, 544 amino acids after deletion of 47 amino acids on the C-terminal); 6xHis (C); made in house; host or cells: Escherichia coli; assay: biochemical; design: species or system HCV BK strain
Sequence (P26663 2420-2963): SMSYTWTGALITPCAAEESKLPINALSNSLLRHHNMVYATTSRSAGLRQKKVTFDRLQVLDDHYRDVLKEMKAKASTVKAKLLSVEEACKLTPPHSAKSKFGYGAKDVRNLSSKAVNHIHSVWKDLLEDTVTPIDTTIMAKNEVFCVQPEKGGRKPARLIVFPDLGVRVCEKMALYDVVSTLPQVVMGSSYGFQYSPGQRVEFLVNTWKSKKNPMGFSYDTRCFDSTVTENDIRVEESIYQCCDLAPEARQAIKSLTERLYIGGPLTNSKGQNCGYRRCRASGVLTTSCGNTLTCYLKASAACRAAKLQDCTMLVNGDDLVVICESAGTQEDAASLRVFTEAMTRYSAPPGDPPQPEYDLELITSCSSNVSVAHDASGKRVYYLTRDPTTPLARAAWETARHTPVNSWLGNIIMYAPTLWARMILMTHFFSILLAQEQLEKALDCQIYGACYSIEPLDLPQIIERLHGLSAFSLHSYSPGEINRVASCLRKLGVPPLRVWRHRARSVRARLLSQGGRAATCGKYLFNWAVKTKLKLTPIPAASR
pIC50: −log10 of the molar value. Counter-ions that a name gives are not always drawn.
Consider the following compounds; for each one, report its pIC50.

Look up and report measured pIC50 for this entry: COc1ccc2c(c1)OCCn1c-2c(C2CCCCC2)c2ccc(C(=O)NC(C)(C)c3nc4cccnc4[nH]3)cc21
> 7.00

Look up and report measured pIC50 for this entry: COC(=O)[C@H](CCc1ccc(O)cc1)NC(=O)c1ccc2c(C3CCCCC3)c3n(c2c1)CCOc1cc(OC)ccc1-3
> 7.00

Look up and report measured pIC50 for this entry: Cc1ccc2c(c1)N(C)CCn1c-2c(C2CCCCC2)c2ccc(C(=O)O)c(C)c21
6.00 to 7.00

Look up and report measured pIC50 for this entry: CN(C)C(=O)CN1CCN(c2ccc(N3CCCC3=O)cc2COc2ccc3c(c2)OCCn2c-3c(C3CCCCC3)c3ccc(C(=O)O)cc32)CC1 [Example 2-27, dihydrochloride]
> 7.00

Look up and report measured pIC50 for this entry: CC(C)(COc1ccc(C#N)cc1)NC(=O)c1ccc2c(C3CCCCC3)c3n(c2c1)CCOc1ccccc1-3
6.00 to 7.00

Look up and report measured pIC50 for this entry: Cc1cccc2c1-c1c(C3CCCCC3)c3ccc(C(=O)O)cc3n1CCN2CCN1CCCCC1 [Example 1-241, dihydrochloride]
> 7.00

Look up and report measured pIC50 for this entry: CC(C)N(CCCN1CCn2c(c(C3CCCCC3)c3ccc(C(=O)O)cc32)-c2ccc(Cl)cc21)C(C)C [Example 1-429, dihydrochloride]
> 7.00

Look up and report measured pIC50 for this entry: O=C(CN1CCn2c(c(C3CCCCC3)c3ccc(C(=O)O)cc32)-c2ccccc21)NCc1ccccc1
> 7.00

Look up and report measured pIC50 for this entry: CC(C)C1CCCN(CCN2CCn3c(c(C4CCCCC4)c4ccc(C(=O)O)cc43)-c3ccc(Cl)cc32)C1 (stereo not shown) [Example 1-351, dihydrochloride]
> 7.00

Look up and report measured pIC50 for this entry: COc1ccc2c(c1)OCCn1c-2c(C2CCCCC2)c2ccc(C(=O)NC3(C(=O)Nc4ccc(C(=O)O)cc4)CCOCC3)cc21
> 7.00

Look up and report measured pIC50 for this entry: CCN1CCn2c(c(C3CCCCC3)c3ccc(C(=O)NC4(C(=O)Nc5ccc(/C=C/C(=O)O)cc5)CCC4)cc32)-c2ccc(OC)cc21
> 7.00

Look up and report measured pIC50 for this entry: CCC1CCCCN1CCN1CCn2c(c(C3CCCCC3)c3ccc(C(=O)O)cc32)-c2ccccc21 (stereo not shown) [Example 1-332, dihydrochloride]
> 7.00

Look up and report measured pIC50 for this entry: CN(C)CCN1CCn2c(c(C3CCCCC3)c3ccc(C(=O)O)cc32)-c2ccc(OCc3cccc([N+](=O)[O-])c3)cc21 [Example 1-579, dihydrochloride]
> 7.00
